B1: tRNA (parent)
chain: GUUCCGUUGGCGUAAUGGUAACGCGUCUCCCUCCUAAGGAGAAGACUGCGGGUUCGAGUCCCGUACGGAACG

- Variants of: B1
- assay-explanation: yeast fitness relative to wild type (ratio to wild type); higher = fitter; tRNA-Arg(CCU), competitive growth, 37 C, YPD
This sample holds only a part of the variants without activity.
Kindly state yeast fitness for each of the entries shown.

Field: example entries. Status: answers known.
| item-sequence | yeast fitness |
| --- | --- |
| GUUCCGUUGGCGUAAUAGUAACGCGUCACCCUCCUAGGGAGAAGACUGCGGGUUCGAGUCCCGUACGGAACG [G17A U28A A37G] | ≤ 0.5 |
| GUGCUGUUGACGUAAUGGUAACGCGUCUCCCUCCUAAGGAGAAGACUGCGGGUUUGAGUCCCGUACGGAACG [U3G C5U G10A C55U] | ≤ 0.5 |
| GUUCGGUUGGCGUAAUGGUCACGUGUCUCCCUCCUAAGGAGAAGACUGCGGGUUUGAGUCCCGUACGGAACG [C5G A20C C24U C55U] | ≤ 0.5 |
| GUUCCGUUGGCGUAAUGGUCACGCGUCCCACUCCUAAGGAGAACGCUGCGGGUUAGAGUCCCCUACGGAACG [A20C U28C C30A G44C A45G C55A G63C] | ≤ 0.5 |
| GUUCCGUUGGCGUAAUGGUAAUGCGUCUCCCUCCUAAGGAGAAGACUGCGGGUCCGAGUCCCGUACAGAACG [C22U U54C G67A] | ≤ 0.5 |
| GUUCUGUUGGCGUAAUGGUAACGCGUCUCACUGCUAAGGAGCAGACUGCGGGUUCGAGUACCGUAAGGCACG [C5U C30A C33G A42C C60A C66A A69C] | ≤ 0.5 |

Kindly give each listed record's yeast fitness.
1. GUUCCGUUCGCGUAAGGGUAACGCGUCUCCCUCCUAAGGAGAAGACUGCGGGUUCGAGUCCCGUACGGAUCG [G9C U16G A70U]
2. GUUACGUAGGCGUAAUGGUAACGUGUCUCCCUCCUAAGGAGAAGACUGCGGGUUCGAGUCCCGUACGGAACG [C4A U8A C24U]

1. ≤ 0.5
2. ≤ 0.5

Hello, I would appreciate it if you could give yeast fitness for each entry below.
1. GCUCCGUUGGCGUCAUGGUAACGCGUCUCCCUCCCAAGGAGAAGACUGCGGGUUCGAGUCCCGUACGGAACG [U2C A14C U35C]
2. GUUCCGUUGGCGUAAUGGUAACGCGUCUGCCCCCUAAGGAGAAGACUGCGGGUUCGAGUCGCGUAGGGAACG [C29G U32C C61G C66G]
3. GUUCCGUUGGCGUAAUCGUUACGCGUUUCCCUCCUAAGGAGAAGACUGCGGGCUCGAGUCCCGUACGGAACG [G17C A20U C27U U53C]
4. GUUCCGUUGGCGUAAUGGUAACGCGUCUCCCUCCUAAGGAGGAGACUGUGAGUUCGAGUCCCGUACGGAACG [A42G C49U G51A]
5. GUUCCGUUGGCGUAAUCGUAACGCGUCUCGCUCCUAAGGAGAAGACUGCGGGUUCGCGUCGCGUACGGAACG [G17C C30G A57C C61G]
6. GUUCCGUUGGCGUAAUGGUGACGCGUCUCCGUCCUAAGGAGAAGACUGCGGGUUCGAGUCCCGUACGGAGCG [A20G C31G A70G]
7. GUUCCGUUGGCGUAAUGGUAAGGCGACUCACUCCUAAGGAGUAGACUGCGGGUUCGAGUCCCGUACGGAACG [C22G U26A C30A A42U]

≤ 0.5
≤ 0.5
0.619
0.535
0.613
0.715
0.692

Dear colleague, could you please provide yeast fitness for the variants listed below?
1. GUUCCGUCGGCGCAAUGGUAACGCGUCUCCCUCCUUAAGAGAAGACUGCGGGUUCGAGUCCCGUCCGGAACG [U8C U13C A36U G38A A65C]
2. GUUCCGUUGGCGAAGUGGUAACGCGUCUCCCUCCUAAGGAGAAGACAGCGGGUUCGAGUCCCGGACGGAACG [U13A A15G U47A U64G]

1: ≤ 0.5; 2: ≤ 0.5
